- target or system: human CD33 F61A (human, UniProt P20138 18-364)
- Sequence (P20138 18-364 F61A limits assumed): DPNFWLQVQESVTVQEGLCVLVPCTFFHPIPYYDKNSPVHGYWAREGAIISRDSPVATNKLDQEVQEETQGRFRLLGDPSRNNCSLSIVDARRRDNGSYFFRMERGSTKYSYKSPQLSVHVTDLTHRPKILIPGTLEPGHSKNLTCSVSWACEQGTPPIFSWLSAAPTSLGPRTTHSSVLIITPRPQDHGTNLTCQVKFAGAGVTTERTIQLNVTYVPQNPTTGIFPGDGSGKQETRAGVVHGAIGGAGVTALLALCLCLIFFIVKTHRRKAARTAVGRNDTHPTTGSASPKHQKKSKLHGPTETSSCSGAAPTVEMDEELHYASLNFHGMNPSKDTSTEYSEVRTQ
- protocol description: alanine scan, flow cytometry;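 further: HEK293-T cells transiently expressing single-residue alanine mutants of CD33 (alanine swapped to serine), antibody binding read by fluorescence in duplicate, background-subtracted, expressed relative to wild-type CD33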
assay endpoint: Mean % WT Binding (% WT)
Answers are plain numbers, in % WT.

In the examples that follow, each entry is paired with its recorded Mean % WT Binding.
| binder | unit name | measurement |
| --- | --- | --- |
| Refmab #4 (antibody, V domains shown, Full-length format is human IgG1 Fc silent (PG-LALA); The alanine scan used IgG or Fab) VH: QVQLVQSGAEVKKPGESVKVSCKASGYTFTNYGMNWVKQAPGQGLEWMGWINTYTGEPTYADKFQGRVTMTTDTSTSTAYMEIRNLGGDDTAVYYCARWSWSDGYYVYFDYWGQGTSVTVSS VL: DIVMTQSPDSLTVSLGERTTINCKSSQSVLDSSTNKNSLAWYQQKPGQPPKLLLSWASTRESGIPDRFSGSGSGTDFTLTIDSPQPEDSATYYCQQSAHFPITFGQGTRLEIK | % WT | 131 |
| Refmab #3 (antibody, V domains shown, Full-length format is human IgG1 Fc silent (PG-LALA); The alanine scan used IgG or Fab) VH: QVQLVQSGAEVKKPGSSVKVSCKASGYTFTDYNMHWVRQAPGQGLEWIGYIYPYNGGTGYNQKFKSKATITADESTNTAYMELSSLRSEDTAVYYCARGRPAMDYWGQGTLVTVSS VL: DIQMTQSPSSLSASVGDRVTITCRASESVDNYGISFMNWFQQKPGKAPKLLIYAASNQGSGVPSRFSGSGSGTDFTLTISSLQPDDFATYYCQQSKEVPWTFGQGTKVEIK | % WT | 304 |

Next item in the queue.
Challenge: Please give the documented Mean % WT Binding of Refmab #2 (antibody, V domains shown, Full-length format is human IgG1 Fc silent (PG-LALA); The alanine scan used IgG or Fab) VH: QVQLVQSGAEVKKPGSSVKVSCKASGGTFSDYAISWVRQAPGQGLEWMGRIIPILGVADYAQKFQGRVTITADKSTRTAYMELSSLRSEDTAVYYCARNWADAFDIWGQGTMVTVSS VL: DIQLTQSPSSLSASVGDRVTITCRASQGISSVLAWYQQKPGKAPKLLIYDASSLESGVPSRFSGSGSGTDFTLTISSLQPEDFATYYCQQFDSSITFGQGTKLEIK
Response given: 135
